- Experimental System: Jak2 (UniProt O60674)
- Sequence (O60674 whole entry, looked up): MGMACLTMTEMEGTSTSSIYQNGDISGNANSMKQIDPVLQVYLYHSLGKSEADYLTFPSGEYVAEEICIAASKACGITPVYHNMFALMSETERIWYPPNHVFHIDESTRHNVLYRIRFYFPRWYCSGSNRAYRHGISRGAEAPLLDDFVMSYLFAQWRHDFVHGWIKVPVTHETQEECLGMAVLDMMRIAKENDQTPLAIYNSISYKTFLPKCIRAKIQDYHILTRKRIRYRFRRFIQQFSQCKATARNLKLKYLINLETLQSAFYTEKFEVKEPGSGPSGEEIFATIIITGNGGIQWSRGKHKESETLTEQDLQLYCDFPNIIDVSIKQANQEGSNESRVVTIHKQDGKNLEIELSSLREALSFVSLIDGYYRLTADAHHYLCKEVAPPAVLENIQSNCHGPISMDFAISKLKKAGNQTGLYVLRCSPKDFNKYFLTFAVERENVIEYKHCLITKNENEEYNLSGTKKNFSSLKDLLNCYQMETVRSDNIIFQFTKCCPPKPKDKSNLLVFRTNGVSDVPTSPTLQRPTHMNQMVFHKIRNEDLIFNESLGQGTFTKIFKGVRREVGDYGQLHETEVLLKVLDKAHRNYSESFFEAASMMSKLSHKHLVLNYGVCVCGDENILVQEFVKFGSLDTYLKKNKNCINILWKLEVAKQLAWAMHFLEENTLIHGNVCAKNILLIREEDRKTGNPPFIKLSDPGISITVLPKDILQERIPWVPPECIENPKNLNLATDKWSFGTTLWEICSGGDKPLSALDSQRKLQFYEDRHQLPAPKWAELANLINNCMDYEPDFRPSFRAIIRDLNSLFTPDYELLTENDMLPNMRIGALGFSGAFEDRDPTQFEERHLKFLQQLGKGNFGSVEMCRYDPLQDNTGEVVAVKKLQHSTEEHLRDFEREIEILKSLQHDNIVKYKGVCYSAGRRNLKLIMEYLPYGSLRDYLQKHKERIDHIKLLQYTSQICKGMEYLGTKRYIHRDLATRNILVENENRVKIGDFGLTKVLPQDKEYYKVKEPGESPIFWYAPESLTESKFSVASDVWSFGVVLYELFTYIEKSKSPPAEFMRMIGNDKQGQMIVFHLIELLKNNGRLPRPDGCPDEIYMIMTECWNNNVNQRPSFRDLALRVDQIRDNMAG
- Protocol Notes: phosphorylation enrichment, bacterial display (enrichment ratio); higher = better substrate or ligand; peptides without Tyr show the background;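 also: 11-residue human phosphosite peptides and single-mutation variants displayed on the E. coli surface, counted by deep sequencing, each peptide's frequency after selection divided by its frequency in the unselected input library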;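 also: frequency after pTyr selection over input frequency; kinase dosed for 20-30% of maximal phosphorylation in three min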
Class (by phosphorylation enrichment) -- class A (below 0.7), class B (0.7 to below 1), class C (1 or more)

> print(dat)
                         sequence.code  class.name
 1          ASGKFYAMKIL [AKT3_Y174_YF]     class B
 2     NTQRPHYKGGG [TYROBP_Y111_Y111H]     class A
 3         LYEDCYLLGTS [ASS1_Y87_R86C]     class C
 4      RWQQLYDTLNA [EIF3M_Y351_Q346R]     class C
 5        GAAMLYFPSVS [GPR143_Y177_YF]     class C
 6  FGSRLYKFAFK [FANCD2_Y458_L456R_YF]     class A
 7           LPENPYHSRPR [NDUFA8_Y142]     class A
 8              NKVKFYIPDMN [NCR1_Y84]     class B
 9           GVIKEYQIRQV [USH2A_Y3623]     class A
10    VIVRMYDFHVL [RPF2_Y109_G106V_YF]     class B
11      SKEPYYVHCIK [MYO1D_Y586_R588H]     class A
12       GESQGYDIMEA [MSH2_Y863_P868A]     class B
13      WEPFGFAVTRC [PTPRT_Y412_Y412F]     class C
14        QEGPEYWDQQT [HLA-A_Y83_E87Q]     class C
15       QVQQIYSDSDL [MIB1_Y376_R371Q]     class C
16    QTSTDYDIRFY [CSNK2A1_Y131_L128S]     class C
17            FMCKVYSDPQP [FGFR1_Y280]     class C
18      FSQETYYRVSN [ABCD1_Y180_Q178E]     class C
19   SFCFRYRCAPR [SUMF1_Y344_A348P_YF]     class B
20            EKMWTYMRSAE [GRIA4_Y695]     class B
21   QSSEGYDLGDR [KIAA1210_Y564_G565D]     class C
22       TVHPGYGFLSE [PCCA_Y143_A138T]     class A

* * *

- Experimental System: FGFR1 (UniProt P11362)
- Sequence (P11362 whole entry, looked up): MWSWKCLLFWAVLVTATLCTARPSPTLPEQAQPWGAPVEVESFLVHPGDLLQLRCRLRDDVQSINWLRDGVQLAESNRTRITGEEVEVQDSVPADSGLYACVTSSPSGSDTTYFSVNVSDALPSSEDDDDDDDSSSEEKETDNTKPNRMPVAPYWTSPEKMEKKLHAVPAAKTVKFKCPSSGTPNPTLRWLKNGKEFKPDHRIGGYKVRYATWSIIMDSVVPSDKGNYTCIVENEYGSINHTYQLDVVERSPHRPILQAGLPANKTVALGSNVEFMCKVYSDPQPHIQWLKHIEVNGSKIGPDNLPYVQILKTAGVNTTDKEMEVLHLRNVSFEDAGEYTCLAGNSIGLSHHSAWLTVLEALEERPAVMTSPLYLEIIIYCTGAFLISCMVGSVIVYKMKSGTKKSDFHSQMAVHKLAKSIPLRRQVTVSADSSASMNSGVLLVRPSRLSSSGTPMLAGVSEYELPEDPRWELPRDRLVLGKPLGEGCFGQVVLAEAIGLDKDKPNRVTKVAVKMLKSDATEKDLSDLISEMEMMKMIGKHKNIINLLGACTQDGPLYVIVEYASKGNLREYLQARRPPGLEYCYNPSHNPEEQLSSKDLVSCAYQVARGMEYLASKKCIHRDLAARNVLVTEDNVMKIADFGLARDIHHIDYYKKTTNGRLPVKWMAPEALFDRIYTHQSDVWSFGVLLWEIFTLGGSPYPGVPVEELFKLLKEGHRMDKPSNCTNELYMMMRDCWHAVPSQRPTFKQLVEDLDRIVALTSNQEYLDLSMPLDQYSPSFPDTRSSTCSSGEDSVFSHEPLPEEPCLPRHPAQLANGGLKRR
- Protocol Notes: phosphorylation enrichment, bacterial display (enrichment ratio); higher = better substrate or ligand; peptides without Tyr show the background
Below: a set of entries, each annotated with reported phosphorylation enrichment.
Assay Readout: phosphorylation enrichment

> print(dat)
                         sequence.code     experimental.system               assay.readout  result
 1      DNPAKYFILEN [DPP10_Y512_S517N]  FGFR1 (UniProt P11362)  phosphorylation enrichment   0.557
 2      HFGCIYHGTLL [MET_Y1093_V1092I]  FGFR1 (UniProt P11362)  phosphorylation enrichment   0.984
 3             RLPSGYGLAYR [DLK1_Y262]  FGFR1 (UniProt P11362)  phosphorylation enrichment    1.32
 4             FQGRRYDCDCD [CRYGS_Y21]  FGFR1 (UniProt P11362)  phosphorylation enrichment   0.478
 5       DDYDLYGGEKF [PTPN11_Y66_Y62D]  FGFR1 (UniProt P11362)  phosphorylation enrichment   0.507
 6          ADRNHYRRFPR [YBX1_Y145_YF]  FGFR1 (UniProt P11362)  phosphorylation enrichment   0.539
 7     RRGTGYTLPLP [MAGEC3_Y152_S155P]  FGFR1 (UniProt P11362)  phosphorylation enrichment   0.651
 8      NTCNRYCCDEI [ITGB3_Y660_R662C]  FGFR1 (UniProt P11362)  phosphorylation enrichment   0.595
 9           RIAFQYGVTDL [MYBPC3_Y340]  FGFR1 (UniProt P11362)  phosphorylation enrichment    0.45
10   NFNPNYCFAGK [ALK_Y1096_D1091N_YF]  FGFR1 (UniProt P11362)  phosphorylation enrichment   0.548
11           YDGKEYDPVEA [MAPRE2_Y167]  FGFR1 (UniProt P11362)  phosphorylation enrichment   0.535
12        RIDPDYMGRVR [IGSF9_Y81_V82M]  FGFR1 (UniProt P11362)  phosphorylation enrichment   0.344
13          TSFSGYRFHRH [NKAPL_Y94_YF]  FGFR1 (UniProt P11362)  phosphorylation enrichment    0.44
14          RQQEDYLLYKQ [RARRES1_Y159]  FGFR1 (UniProt P11362)  phosphorylation enrichment   0.743
15       CTTTHYNYMCN [TP53_Y234_I232T]  FGFR1 (UniProt P11362)  phosphorylation enrichment   0.551
16   IHHIDYFKETT [FGFR1_Y653_K656E_YF]  FGFR1 (UniProt P11362)  phosphorylation enrichment   0.443
17   QSSEGYDLGDR [KIAA1210_Y564_G565D]  FGFR1 (UniProt P11362)  phosphorylation enrichment   0.416
18     RTLSEYARRHV [RERE_Y1259_P1262R]  FGFR1 (UniProt P11362)  phosphorylation enrichment   0.393
19       SVVVPYELPEV [TP53_Y220_P222L]  FGFR1 (UniProt P11362)  phosphorylation enrichment   0.553
20  FGSRLYKFAFK [FANCD2_Y458_L456R_YF]  FGFR1 (UniProt P11362)  phosphorylation enrichment   0.399
21           PGAPAYRVLME [MYO5A_Y1245]  FGFR1 (UniProt P11362)  phosphorylation enrichment   0.379
22             DVLEFYNSKKT [PAK1_Y131]  FGFR1 (UniProt P11362)  phosphorylation enrichment   0.856
23        QEGPEYWDQQT [HLA-A_Y83_E87Q]  FGFR1 (UniProt P11362)  phosphorylation enrichment    1.01
24        GIVEEYQLPFF [BMPR1A_Y453_YF]  FGFR1 (UniProt P11362)  phosphorylation enrichment   0.812
25           EWRSPYGLTPR [GRIN3B_Y601]  FGFR1 (UniProt P11362)  phosphorylation enrichment   0.403
26       AELVRYYMEHH [PTPN11_Y80_Q79R]  FGFR1 (UniProt P11362)  phosphorylation enrichment   0.623
27        PGQAAYQKVVA [HBB_Y131_V127G]  FGFR1 (UniProt P11362)  phosphorylation enrichment   0.373
28         SEDSEYFKAFE [CASQ2_Y178_YF]  FGFR1 (UniProt P11362)  phosphorylation enrichment   0.608
29              LPIQTYSALNF [DES_Y423]  FGFR1 (UniProt P11362)  phosphorylation enrichment     2.1
30    CTTLHYNFMCN [TP53_Y234_I232L_YF]  FGFR1 (UniProt P11362)  phosphorylation enrichment   0.567
31       QRRLVYYERGA [RYR1_Y245_G248R]  FGFR1 (UniProt P11362)  phosphorylation enrichment   0.499
32       NAPNSYGRRLI [CDKN2A_Y44_P48L]  FGFR1 (UniProt P11362)  phosphorylation enrichment   0.446
33           ERFSYYGMKAV [SLC15A2_Y61]  FGFR1 (UniProt P11362)  phosphorylation enrichment    4.94
34              TTKGSYSLSVR [HCK_Y180]  FGFR1 (UniProt P11362)  phosphorylation enrichment   0.558
35             LPVHFYGHVEH [PYGM_Y204]  FGFR1 (UniProt P11362)  phosphorylation enrichment    1.54
36    LFNQDYPIHCV [GATM_Y227_S231C_YF]  FGFR1 (UniProt P11362)  phosphorylation enrichment    4.54
37       HHTNEYEYDEL [TGM1_Y134_D132N]  FGFR1 (UniProt P11362)  phosphorylation enrichment    0.69
38            GGQSVYHVHLH [HINT1_Y109]  FGFR1 (UniProt P11362)  phosphorylation enrichment   0.495
39     FYDANCDGKEY [MAPRE2_Y162_Y162C]  FGFR1 (UniProt P11362)  phosphorylation enrichment   0.497
40              PEADKYRLTYA [FGG_Y300]  FGFR1 (UniProt P11362)  phosphorylation enrichment   0.888
41    EQKRYYNAMKK [SCN5A_Y1495_K1493R]  FGFR1 (UniProt P11362)  phosphorylation enrichment   0.348
42      NHFKIHNLCAE [PTEN_Y68_Y68H_YF]  FGFR1 (UniProt P11362)  phosphorylation enrichment   0.428
43       RPFFLYVAFHN [SGSH_Y174_D179N]  FGFR1 (UniProt P11362)  phosphorylation enrichment   0.564
44     EDGRLYAVKCS [PKMYT1_Y136_R140C]  FGFR1 (UniProt P11362)  phosphorylation enrichment   0.513
45    CTTVHYNFMCN [TP53_Y234_I232V_YF]  FGFR1 (UniProt P11362)  phosphorylation enrichment   0.472
46         GDEVEYMSVSF [GCLC_Y53_L55S]  FGFR1 (UniProt P11362)  phosphorylation enrichment    1.01
47      PIYLYYLMDLS [ITGB2_Y131_D128Y]  FGFR1 (UniProt P11362)  phosphorylation enrichment    13.6
48        EFNLMYDGAKE [IRF6_Y97_T100A]  FGFR1 (UniProt P11362)  phosphorylation enrichment   0.652
49      QLYGPYLRIHA [BSCL2_Y213_A212P]  FGFR1 (UniProt P11362)  phosphorylation enrichment   0.344
50             HESEIYCKVCY [CSRP3_Y57]  FGFR1 (UniProt P11362)  phosphorylation enrichment    1.03
51    DSYWSYCNAVA [SLC20A2_Y436_S434W]  FGFR1 (UniProt P11362)  phosphorylation enrichment    4.16
52      SKEPYYVHCIK [MYO1D_Y586_R588H]  FGFR1 (UniProt P11362)  phosphorylation enrichment    0.77
53              SLGKGYSDGGC [MC4R_Y35]  FGFR1 (UniProt P11362)  phosphorylation enrichment   0.576
